- Test system: 361931-004-R-J1-PDC multicell spheroid viability
- assay-info: Anticancer human tumor 361931-004-R-J1-PDC patient-derived colon adenocarcinoma cell line growth inhibition [PI3K]
- assay-setup: second compound 0.00316 µM; first compound 10 µM; hits give low values
// viability, T/C lookup, one value per entry
Field format: number, assumed %, no unit text.

| compound | viability, T/C (%) |
| --- | --- |
| Cn1nccc1Nc1nccc(-c2ccn(C(CO)c3ccc(Cl)c(F)c3)c(=O)c2)n1 (stereo unspecified) + COc1c(OCCCN2CCOCC2)ccc2c3n(c(=NC(=O)c4cnc(N)nc4)nc12)CCN3 | 47.2 |
| CC(C)NCC(C(=O)N1CCN(c2ncnc3c2C(C)CC3O)CC1)c1ccc(Cl)cc1 (stereo unspecified) + COc1c(OCCCN2CCOCC2)ccc2c3n(c(=NC(=O)c4cnc(N)nc4)nc12)CCN3 | 19.5 |
| C[C@@H](NC(=O)c1ncnc(N)c1Cl)c1ncc(C(=O)Nc2cc(C(F)(F)F)c(Cl)cn2)s1 + COc1c(OCCCN2CCOCC2)ccc2c3n(c(=NC(=O)c4cnc(N)nc4)nc12)CCN3 | 89.2 |

Recorded viability, T/C for CC1(C)CCC(Nc2ncc(C(F)(F)F)c(-c3c[nH]c4c(P(C)(C)=O)c(C#N)ccc34)n2)CN1 (stereo unspecified) + CC(Nc1ccc2c(c1)OCCn1cc(N3C(=O)OCC3C(F)F)nc1-2)C(N)=O , please?
3.82

Using the record for C=CC(=O)N1CCN(c2nc(=O)n(-c3c(C)ccnc3C(C)C)c3nc(-c4c(O)cccc4F)c(F)cc23)C(C)C1 (stereo unspecified) + CC(Nc1ccc2c(c1)OCCn1cc(N3C(=O)OCC3C(F)F)nc1-2)C(N)=O , report its viability, T/C.
81.2

Recorded viability, T/C for CNC(=O)c1ccc(N2C(=S)N(c3ccc(C#N)c(C(F)(F)F)c3)C(=O)C2(C)C)cc1F + COc1c(OCCCN2CCOCC2)ccc2c3n(c(=NC(=O)c4cnc(N)nc4)nc12)CCN3 , please?
88.5

For the compound shown here, C#Cc1c(F)ccc2cc(O)cc(-c3ncc4c(N5CC6CCC(C5)N6)nc(OCC56CCCN5CC(F)C6)nc4c3F)c12 (stereo unspecified) + COc1c(OCCCN2CCOCC2)ccc2c3n(c(=NC(=O)c4cnc(N)nc4)nc12)CCN3 , give the reported viability, T/C.
84.9

Query (compound): CC(Cn1ccc(-c2ccc(C#N)c(Cl)c2)n1)NC(=O)c1cc(C(C)O)[nH]n1 (stereo unspecified) + CC(Nc1ccc2c(c1)OCCn1cc(N3C(=O)OCC3C(F)F)nc1-2)C(N)=O ; field requested: viability, T/C
102

---

- Tested on: 361931-004-R-J1-PDC multicell spheroid viability
- assay-info: Anticancer human tumor 361931-004-R-J1-PDC cell line growth inhibition [PI3K];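 also: spheroids exposed to agents for seven days before readout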
- assay-setup: second compound 0.0316 µM; first compound 0.0316 µM; hits give low values
Each item that follows carries a reported viability, T/C.
# value in %; strip the unit string

| compound | experimental-endpoint | val |
| --- | --- | --- |
| Cn1ncnc1[C@H]1c2n[nH]c(=O)c3cc(F)cc(c23)N[C@@H]1c1ccc(F)cc1 + CC(Nc1ncnc2nc[nH]c12)c1cc2cccc(Cl)c2c(=O)n1-c1ccccc1 | viability, T/C | 107 |
| CC(C)n1nc(-c2ccc3oc(N)nc3c2)c2c(N)ncnc21 + CC(Nc1ccc2c(c1)OCCn1cc(N3C(=O)OCC3C(F)F)nc1-2)C(N)=O | viability, T/C | 94.1 |
| CNC(=O)c1ccc(N2C(=S)N(c3ccc(C#N)c(C(F)(F)F)c3)C(=O)C2(C)C)cc1F + CC(Nc1ccc2c(c1)OCCn1cc(N3C(=O)OCC3C(F)F)nc1-2)C(N)=O | viability, T/C | 107 |
| CC(=O)c1c(C)c2cnc(Nc3ccc(N4CCNCC4)cn3)nc2n(C2CCCC2)c1=O + COc1c(OCCCN2CCOCC2)ccc2c3n(c(=NC(=O)c4cnc(N)nc4)nc12)CCN3 | viability, T/C | 83.8 |
| CC1(C)CCC(CN2CCN(c3ccc(C(=O)NS(=O)(=O)c4ccc(NCC5CCOCC5)c([N+](=O)[O-])c4)c(Oc4cnc5[nH]ccc5c4)c3)CC2)=C(c2ccc(Cl)cc2)C1 + Cc1nc(NC(=O)N2CCCC2C(N)=O)sc1-c1ccnc(C(C)(C)C(F)(F)F)c1 | viability, T/C | 108 |

Using the record for C[C@@H](NC(=O)c1ncnc(N)c1Cl)c1ncc(C(=O)Nc2cc(C(F)(F)F)c(Cl)cn2)s1 + CC(Nc1ccc2c(c1)OCCn1cc(N3C(=O)OCC3C(F)F)nc1-2)C(N)=O , report its viability, T/C.
101

---

- Tested on: 361931-004-R-J1-PDC multicell spheroid viability
- assay-info: Anticancer human tumor 361931-004-R-J1-PDC cell line growth inhibition [PI3K];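 also: spheroids exposed to agents for seven days before readout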
- assay-setup: second compound 0.0316 µM; first compound 0.001 µM; hits give low values
experimental-endpoint: viability, T/C (%)
Supply the numeric figure in %, leaving out any unit text.

# count of solved cases: 5
| compound | experimental-endpoint | val |
| --- | --- | --- |
| Cn1ncnc1[C@H]1c2n[nH]c(=O)c3cc(F)cc(c23)N[C@@H]1c1ccc(F)cc1 + CC(Nc1ccc2c(c1)OCCn1cc(N3C(=O)OCC3C(F)F)nc1-2)C(N)=O | viability, T/C | 100 |
| Cn1ncnc1[C@H]1c2n[nH]c(=O)c3cc(F)cc(c23)N[C@@H]1c1ccc(F)cc1 + COc1c(OCCCN2CCOCC2)ccc2c3n(c(=NC(=O)c4cnc(N)nc4)nc12)CCN3 | viability, T/C | 87 |
| CC(=O)c1c(C)c2cnc(Nc3ccc(N4CCNCC4)cn3)nc2n(C2CCCC2)c1=O + Cc1nc(NC(=O)N2CCCC2C(N)=O)sc1-c1ccnc(C(C)(C)C(F)(F)F)c1 | viability, T/C | 105 |
| CC(=O)c1c(C)c2cnc(Nc3ccc(N4CCNCC4)cn3)nc2n(C2CCCC2)c1=O + CC(Nc1ncnc2nc[nH]c12)c1cc2cccc(Cl)c2c(=O)n1-c1ccccc1 | viability, T/C | 103 |
| CC(=O)c1c(C)c2cnc(Nc3ccc(N4CCNCC4)cn3)nc2n(C2CCCC2)c1=O + COc1c(OCCCN2CCOCC2)ccc2c3n(c(=NC(=O)c4cnc(N)nc4)nc12)CCN3 | viability, T/C | 89.3 |

With those in mind, consider the next compound.
Need viability, T/C of Cn1ncnc1[C@H]1c2n[nH]c(=O)c3cc(F)cc(c23)N[C@@H]1c1ccc(F)cc1 + CC(Nc1ncnc2nc[nH]c12)c1cc2cccc(Cl)c2c(=O)n1-c1ccccc1 , thanks.
106

---

- System: 361931-004-R-J1-PDC multicell spheroid viability
- assay-info: Anticancer human tumor 361931-004-R-J1-PDC cell line growth inhibition [PI3K];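 also: spheroids exposed to agents for seven days before readout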
- assay-setup: second compound 0.0316 µM; first compound 0.0316 µM; hits give low values
experimental-endpoint: viability, T/C

These solved cases illustrate the format of a correct answer.
| molecule | study-target | viability, T/C |
| --- | --- | --- |
| CC1(C)CCC(Nc2ncc(C(F)(F)F)c(-c3c[nH]c4c(P(C)(C)=O)c(C#N)ccc34)n2)CN1 (stereo not given) + CC(Nc1ncnc2nc[nH]c12)c1cc2cccc(Cl)c2c(=O)n1-c1ccccc1 | 361931-004-R-J1-PDC multicell spheroid viability | 106% |
| CC1(C)CCC(CN2CCN(c3ccc(C(=O)NS(=O)(=O)c4ccc(NCC5CCOCC5)c([N+](=O)[O-])c4)c(Oc4cnc5[nH]ccc5c4)c3)CC2)=C(c2ccc(Cl)cc2)C1 + CC(Nc1ncnc2nc[nH]c12)c1cc2cccc(Cl)c2c(=O)n1-c1ccccc1 | 361931-004-R-J1-PDC multicell spheroid viability | 105% |

Would you kindly share the measured viability, T/C for CC(=O)c1c(C)c2cnc(Nc3ccc(N4CCNCC4)cn3)nc2n(C2CCCC2)c1=O + CC(Nc1ccc2c(c1)OCCn1cc(N3C(=O)OCC3C(F)F)nc1-2)C(N)=O ?
91%

Which viability, T/C value belongs to Cn1ncnc1[C@H]1c2n[nH]c(=O)c3cc(F)cc(c23)N[C@@H]1c1ccc(F)cc1 + COc1c(OCCCN2CCOCC2)ccc2c3n(c(=NC(=O)c4cnc(N)nc4)nc12)CCN3 ?
87.3%

Request the reported viability, T/C associated with C=CC(=O)N1CCN(c2nc(=O)n(-c3c(C)ccnc3C(C)C)c3nc(-c4c(O)cccc4F)c(F)cc23)C(C)C1 (stereo not given) + CC(Nc1ccc2c(c1)OCCn1cc(N3C(=O)OCC3C(F)F)nc1-2)C(N)=O
104%

---

Measured viability, T/C, listed per entry for reference.
- System: 361931-004-R-J1-PDC multicell spheroid viability
- assay-info: Anticancer human tumor 361931-004-R-J1-PDC cell line growth inhibition [PI3K];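 also: spheroids exposed to agents for seven days before readout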
- assay-setup: second compound 3.16 µM; first compound 0.316 µM; hits give low values
Number only, in %; omit the unit.

Previously resolved entries follow.
| molecule | readout-unit | viability, T/C |
| --- | --- | --- |
| CCCS(=O)(=O)Nc1ccc(F)c(C(=O)c2c[nH]c3ncc(-c4ccc(Cl)cc4)cc23)c1F + CC(Nc1ncnc2nc[nH]c12)c1cc2cccc(Cl)c2c(=O)n1-c1ccccc1 | % | 103 |
| CCCS(=O)(=O)Nc1ccc(F)c(C(=O)c2c[nH]c3ncc(-c4ccc(Cl)cc4)cc23)c1F + Cc1nc(NC(=O)N2CCCC2C(N)=O)sc1-c1ccnc(C(C)(C)C(F)(F)F)c1 | % | 60.3 |
| C#Cc1c(F)ccc2cc(O)cc(-c3ncc4c(N5CC6CCC(C5)N6)nc(OCC56CCCN5CC(F)C6)nc4c3F)c12 (stereo not given) + Cc1nc(NC(=O)N2CCCC2C(N)=O)sc1-c1ccnc(C(C)(C)C(F)(F)F)c1 | % | 65.5 |
| C#Cc1c(F)ccc2cc(O)cc(-c3ncc4c(N5CC6CCC(C5)N6)nc(OCC56CCCN5CC(F)C6)nc4c3F)c12 (stereo not given) + CC(Nc1ncnc2nc[nH]c12)c1cc2cccc(Cl)c2c(=O)n1-c1ccccc1 | % | 103 |
| CC1(C)CCC(CN2CCN(c3ccc(C(=O)NS(=O)(=O)c4ccc(NCC5CCOCC5)c([N+](=O)[O-])c4)c(Oc4cnc5[nH]ccc5c4)c3)CC2)=C(c2ccc(Cl)cc2)C1 + CC(Nc1ncnc2nc[nH]c12)c1cc2cccc(Cl)c2c(=O)n1-c1ccccc1 | % | 96 |

Looking for the measured viability, T/C of CC(Cn1ccc(-c2ccc(C#N)c(Cl)c2)n1)NC(=O)c1cc(C(C)O)[nH]n1 (stereo not given) + CC(Nc1ncnc2nc[nH]c12)c1cc2cccc(Cl)c2c(=O)n1-c1ccccc1 , can you help?
100

Suppose we examine the molecule CNC(=O)c1ccc(N2C(=S)N(c3ccc(C#N)c(C(F)(F)F)c3)C(=O)C2(C)C)cc1F + Cc1nc(NC(=O)N2CCCC2C(N)=O)sc1-c1ccnc(C(C)(C)C(F)(F)F)c1 ; what viability, T/C value has been reported?
91.3

Bench note: what viability, T/C did CC1(C)CCC(Nc2ncc(C(F)(F)F)c(-c3c[nH]c4c(P(C)(C)=O)c(C#N)ccc34)n2)CN1 (stereo not given) + Cc1nc(NC(=O)N2CCCC2C(N)=O)sc1-c1ccnc(C(C)(C)C(F)(F)F)c1 show?
59.5

Returns the measured viability, T/C for the input molecule. Input: Cn1nccc1Nc1nccc(-c2ccn(C(CO)c3ccc(Cl)c(F)c3)c(=O)c2)n1 (stereo not given) + CC(Nc1ncnc2nc[nH]c12)c1cc2cccc(Cl)c2c(=O)n1-c1ccccc1
100

Dear colleague, I am looking for the recorded viability, T/C of the following molecule: CC1(C)CCC(CN2CCN(c3ccc(C(=O)NS(=O)(=O)c4ccc(NCC5CCOCC5)c([N+](=O)[O-])c4)c(Oc4cnc5[nH]ccc5c4)c3)CC2)=C(c2ccc(Cl)cc2)C1 + Cc1nc(NC(=O)N2CCCC2C(N)=O)sc1-c1ccnc(C(C)(C)C(F)(F)F)c1
78.2
